# system: Ba/F3-FGFR4-transfected cells (Homo sapiens, UniProt P22455)
# Sequence (P22455 whole entry, change not shown): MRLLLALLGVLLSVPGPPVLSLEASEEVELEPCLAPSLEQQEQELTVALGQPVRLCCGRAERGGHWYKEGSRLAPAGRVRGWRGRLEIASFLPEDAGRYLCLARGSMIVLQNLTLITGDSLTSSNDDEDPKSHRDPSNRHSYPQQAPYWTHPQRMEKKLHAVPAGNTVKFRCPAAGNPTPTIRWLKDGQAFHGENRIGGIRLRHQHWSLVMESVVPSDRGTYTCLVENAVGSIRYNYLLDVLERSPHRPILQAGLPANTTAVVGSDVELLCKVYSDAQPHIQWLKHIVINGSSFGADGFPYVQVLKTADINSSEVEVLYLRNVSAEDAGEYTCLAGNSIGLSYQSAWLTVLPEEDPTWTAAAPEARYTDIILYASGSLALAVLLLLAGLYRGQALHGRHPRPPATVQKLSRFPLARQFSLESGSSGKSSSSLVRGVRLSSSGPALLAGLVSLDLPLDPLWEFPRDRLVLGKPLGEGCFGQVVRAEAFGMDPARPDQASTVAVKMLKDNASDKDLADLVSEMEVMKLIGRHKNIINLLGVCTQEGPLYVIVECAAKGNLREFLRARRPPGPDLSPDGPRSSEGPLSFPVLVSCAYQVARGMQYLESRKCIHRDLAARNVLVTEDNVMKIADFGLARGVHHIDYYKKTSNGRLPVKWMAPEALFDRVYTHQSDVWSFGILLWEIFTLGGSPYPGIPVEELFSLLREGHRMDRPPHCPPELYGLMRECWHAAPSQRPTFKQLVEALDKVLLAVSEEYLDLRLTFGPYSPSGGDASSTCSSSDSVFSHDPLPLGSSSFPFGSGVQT
# assay comment: Ba/F3-FGFR4 cellular proliferation assay, Alamar Blue
# Type: cell-based
reported metric: BAF3-FGFR4 pIC50

Query :: Fill in: BAF3-FGFR4 pIC50 of COc1ccc(Cl)c(/N=c2\ccc3ncc(-c4cnn(C)c4)nc3n2CC2CCC(=O)N2)c1Cl (single isomer, unassigned) [Compound 89] is ___
Result :: <5

Query :: Fill in: BAF3-FGFR4 pIC50 of COc1cc(OC)cc(N(Cc2nn[nH]n2)c2ccc3ncc(-c4cnn(C)c4)nc3n2)c1 is ___
Result :: <5

Query :: Fill in: BAF3-FGFR4 pIC50 of CNCCn1/c(=N/c2c(Cl)ccc(OC)c2Cl)ccc2ncc(-c3cnn(C)c3)nc21 is ___
Result :: <5

====

# system: FGFR4 (h) (Homo sapiens)
# Sequence (P22455 22-802): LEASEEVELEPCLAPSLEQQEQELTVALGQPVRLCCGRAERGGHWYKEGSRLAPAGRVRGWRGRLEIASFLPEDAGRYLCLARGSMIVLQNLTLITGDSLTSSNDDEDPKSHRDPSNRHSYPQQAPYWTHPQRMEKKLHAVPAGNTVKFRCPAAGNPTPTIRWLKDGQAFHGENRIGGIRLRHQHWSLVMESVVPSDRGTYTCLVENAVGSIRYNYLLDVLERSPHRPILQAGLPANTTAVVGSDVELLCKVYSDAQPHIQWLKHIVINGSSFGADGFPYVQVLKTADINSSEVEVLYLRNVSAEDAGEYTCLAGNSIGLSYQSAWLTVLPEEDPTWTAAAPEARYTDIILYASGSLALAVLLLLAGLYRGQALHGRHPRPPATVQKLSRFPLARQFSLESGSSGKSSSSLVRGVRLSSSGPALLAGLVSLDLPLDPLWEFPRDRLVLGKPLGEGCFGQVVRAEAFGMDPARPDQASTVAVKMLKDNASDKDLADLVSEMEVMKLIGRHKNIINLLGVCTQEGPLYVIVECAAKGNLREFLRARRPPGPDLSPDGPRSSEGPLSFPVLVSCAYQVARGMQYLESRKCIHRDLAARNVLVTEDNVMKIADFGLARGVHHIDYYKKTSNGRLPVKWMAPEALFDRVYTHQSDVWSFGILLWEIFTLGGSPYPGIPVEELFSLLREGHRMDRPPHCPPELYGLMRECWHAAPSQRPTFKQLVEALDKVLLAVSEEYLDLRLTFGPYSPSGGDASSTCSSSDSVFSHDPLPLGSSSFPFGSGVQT
# assay comment: FGFR4 (enzymatic assay), TR-FRET
# Assay type: biochemical
# condition: FGFR 4 pIC50, enzymatic assay
Assignment: determine reported pIC50 for the given molecules.
Give only the number. pIC50 is defined as minus log10 of concentration in molar units.

Query :: Fill in: pIC50 of COc1cc(OC)cc(N(Cc2c[nH]nn2)c2ccc3ncc(-c4cnn(C)c4)nc3n2)c1 is ___
Result :: 8.57

Query :: Fill in: pIC50 of COc1cc(OC)c(F)c(N(CC2CCC(=O)N2)c2ccc3ncc(-c4cnn(C5CNC5)c4)nc3n2)c1 (stereo not drawn) is ___
Result :: 8.05

Query :: Fill in: pIC50 of COc1cc(OC)c(F)c(N(CC2COC(=O)N2)c2ccc3ncc(-c4cnn(C)c4)nc3n2)c1 (stereo not drawn) is ___
Result :: 8.37

Query :: Fill in: pIC50 of COc1cc(OC)cc(N(Cc2n[nH]c(=O)o2)c2ccc3ncc(-c4cnn(C)c4)nc3n2)c1 is ___
Result :: 7.65

Query :: Fill in: pIC50 of COc1cc(OC)cc(N(Cc2nc(OC)cc(OC)n2)c2ccc3ncc(-c4cnn(C)c4)nc3n2)c1 is ___
Result :: 7.11

Query :: Fill in: pIC50 of COc1cc(/N=c2\ccc3ncc(-c4cnn(C)c4)nc3n2CC2CC(O)C(=O)N2)cc(OC)c1 (stereo not drawn) is ___
Result :: 8.28

Query :: Fill in: pIC50 of COc1cc(OC)c(F)c(N(Cc2nc(Br)c[nH]2)c2ccc3ncc(-c4cnn(C)c4)nc3n2)c1 is ___
Result :: 8.95

Query :: Fill in: pIC50 of COc1cc(OC)c(F)c(N(Cc2ccn(C)n2)c2ccc3ncc(-c4cnn(C)c4)nc3n2)c1 is ___
Result :: 8.89

Query :: Fill in: pIC50 of COc1cc(OC)c(F)c(N(CCN)c2ccc3ncc(-c4cnn(C)c4)nc3n2)c1 is ___
Result :: 8.34

Query :: Fill in: pIC50 of COc1cc(OC)c(F)c(N(Cc2cnn(C)c2)c2ccc3ncc(-c4cnn(C)c4)nc3n2)c1 is ___
Result :: 9.06

Query :: Fill in: pIC50 of COc1cc(OC)cc(N(CC(O)COC(C)C)c2ccc3ncc(-c4cnn(CC(O)COC(C)C)c4)nc3n2)c1 (stereo not drawn) is ___
Result :: 8.06

Query :: Fill in: pIC50 of COc1cc(OC)cc(N(CC2CCCOC2)c2ccc3ncc(-c4cnn(C)c4)nc3n2)c1 (stereo not drawn) is ___
Result :: 8.03

====

# system: UniProtKB P35968
# Sequence (P35968 20-1356): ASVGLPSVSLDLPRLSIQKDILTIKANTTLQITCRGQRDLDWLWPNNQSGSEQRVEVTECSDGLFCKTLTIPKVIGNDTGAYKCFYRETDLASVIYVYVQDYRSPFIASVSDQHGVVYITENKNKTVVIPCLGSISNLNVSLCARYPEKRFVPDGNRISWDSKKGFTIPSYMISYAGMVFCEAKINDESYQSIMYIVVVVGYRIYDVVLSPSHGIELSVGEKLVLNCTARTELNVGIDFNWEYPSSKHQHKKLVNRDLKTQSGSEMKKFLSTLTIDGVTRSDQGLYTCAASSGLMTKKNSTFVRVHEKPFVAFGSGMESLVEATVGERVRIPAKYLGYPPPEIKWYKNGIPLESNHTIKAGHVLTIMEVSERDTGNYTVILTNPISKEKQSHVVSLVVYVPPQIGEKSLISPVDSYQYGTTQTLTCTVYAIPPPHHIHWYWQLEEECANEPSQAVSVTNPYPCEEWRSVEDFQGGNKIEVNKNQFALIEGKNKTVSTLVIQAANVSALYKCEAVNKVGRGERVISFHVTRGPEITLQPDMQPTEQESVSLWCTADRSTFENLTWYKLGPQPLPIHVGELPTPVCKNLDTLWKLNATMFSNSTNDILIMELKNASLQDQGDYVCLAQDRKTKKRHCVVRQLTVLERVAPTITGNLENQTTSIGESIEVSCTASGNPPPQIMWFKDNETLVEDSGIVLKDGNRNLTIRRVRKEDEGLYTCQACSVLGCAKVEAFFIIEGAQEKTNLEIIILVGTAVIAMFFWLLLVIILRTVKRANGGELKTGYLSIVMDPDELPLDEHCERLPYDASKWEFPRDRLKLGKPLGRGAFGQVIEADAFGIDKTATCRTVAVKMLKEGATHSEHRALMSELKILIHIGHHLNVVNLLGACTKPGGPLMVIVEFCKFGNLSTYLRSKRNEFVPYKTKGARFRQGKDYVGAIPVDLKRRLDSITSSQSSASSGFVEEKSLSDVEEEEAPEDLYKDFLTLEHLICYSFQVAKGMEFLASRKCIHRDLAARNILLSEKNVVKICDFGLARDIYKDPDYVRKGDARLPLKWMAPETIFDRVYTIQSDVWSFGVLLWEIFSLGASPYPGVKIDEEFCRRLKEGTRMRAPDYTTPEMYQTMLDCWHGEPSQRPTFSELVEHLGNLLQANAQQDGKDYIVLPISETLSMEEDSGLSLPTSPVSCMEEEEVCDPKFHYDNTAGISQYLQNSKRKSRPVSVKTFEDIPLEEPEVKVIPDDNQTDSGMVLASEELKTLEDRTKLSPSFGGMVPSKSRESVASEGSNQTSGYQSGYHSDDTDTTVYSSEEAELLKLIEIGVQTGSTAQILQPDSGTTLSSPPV
# assay comment: KDR (VEGFR2) (enzymatic assay), TR-FRET
# Format: biochemical
# condition: average values if tested multiple times, read-out: VEGFR 2 (KDR) pIC50 (converted)
Flag rule - IC50 less than 50 nM flags fulfilled; the remaining entries get not fulfilled.

Query :: Here's an entry: COc1cc(OC)c(F)c(N(CC2CCC(=O)N2)c2ccc3ncc(-c4cnn(C)c4)nc3n2)c1F (centres unmarked) [Compound 48] . Is its IC50 below 50 nM?
Result :: fulfilled

Query :: Here's an entry: COc1cc(OC)c(F)c(N(CC(O)COC(C)C)c2ccc3ncc(-c4cnn(C)c4)nc3n2)c1F (centres unmarked) [Compound 63] . Is its IC50 below 50 nM?
Result :: fulfilled

Query :: Here's an entry: COc1cc(OC)c(F)c(N(CC2CCC(=O)N2)c2ccc3ncc(-c4cnn(C)c4)nc3n2)c1 (centres unmarked) [Compound 52] . Is its IC50 below 50 nM?
Result :: fulfilled

Query :: Here's an entry: COc1cc(OC)c(Cl)c(N(C[C@H]2CCC(=O)N2)c2ccc3ncc(-c4cnn(C)c4)nc3n2)c1Cl [Compound 97] . Is its IC50 below 50 nM?
Result :: not fulfilled

Query :: Here's an entry: CNCCN(c1ccc2ncc(-c3cnn(C)c3)nc2n1)c1cc(OC)cc(OC)c1F [Compound 39] . Is its IC50 below 50 nM?
Result :: fulfilled

Query :: Here's an entry: CNCCn1/c(=N/c2c(Cl)c(OC)cc(OC)c2Cl)ccc2ncc(-c3cnn(C)c3)nc21 [Compound 82] . Is its IC50 below 50 nM?
Result :: not fulfilled

Query :: Here's an entry: COc1cc(OC)c(F)c(N(Cc2cc[nH]n2)c2ccc3ncc(-c4cnn(C)c4)nc3n2)c1 [Compound 118] . Is its IC50 below 50 nM?
Result :: fulfilled

Query :: Here's an entry: COc1cc(OC)cc(N(CC2CCC(=O)N2)c2ccc3ncc(-c4cnn(C)c4)nc3n2)c1 (centres unmarked) [Compound 54] . Is its IC50 below 50 nM?
Result :: not fulfilled

Query :: Here's an entry: COc1ccc(Cl)c(/N=c2\ccc3ncc(-c4cnn(C)c4)nc3n2CC2CCC(=O)N2)c1Cl (single isomer, unassigned) [Compound 89] . Is its IC50 below 50 nM?
Result :: not fulfilled

Query :: Here's an entry: COc1cc(OC)c(F)c(/N=c2\ccc3ncc(-c4cnn(C)c4)nc3n2CCCN2CCCC2=O)c1F [Compound 55] . Is its IC50 below 50 nM?
Result :: fulfilled

Query :: Here's an entry: COc1cc(OC)c(F)c(N(Cc2cn(S(=O)(=O)N(C)C)cn2)c2ccc3ncc(-c4cnn(C)c4)nc3n2)c1 [Compound 36] . Is its IC50 below 50 nM?
Result :: fulfilled

====

Assignment: determine reported IC50 for the given molecules.
# system: UniProtKB P22607
# Sequence (P22607 23-806): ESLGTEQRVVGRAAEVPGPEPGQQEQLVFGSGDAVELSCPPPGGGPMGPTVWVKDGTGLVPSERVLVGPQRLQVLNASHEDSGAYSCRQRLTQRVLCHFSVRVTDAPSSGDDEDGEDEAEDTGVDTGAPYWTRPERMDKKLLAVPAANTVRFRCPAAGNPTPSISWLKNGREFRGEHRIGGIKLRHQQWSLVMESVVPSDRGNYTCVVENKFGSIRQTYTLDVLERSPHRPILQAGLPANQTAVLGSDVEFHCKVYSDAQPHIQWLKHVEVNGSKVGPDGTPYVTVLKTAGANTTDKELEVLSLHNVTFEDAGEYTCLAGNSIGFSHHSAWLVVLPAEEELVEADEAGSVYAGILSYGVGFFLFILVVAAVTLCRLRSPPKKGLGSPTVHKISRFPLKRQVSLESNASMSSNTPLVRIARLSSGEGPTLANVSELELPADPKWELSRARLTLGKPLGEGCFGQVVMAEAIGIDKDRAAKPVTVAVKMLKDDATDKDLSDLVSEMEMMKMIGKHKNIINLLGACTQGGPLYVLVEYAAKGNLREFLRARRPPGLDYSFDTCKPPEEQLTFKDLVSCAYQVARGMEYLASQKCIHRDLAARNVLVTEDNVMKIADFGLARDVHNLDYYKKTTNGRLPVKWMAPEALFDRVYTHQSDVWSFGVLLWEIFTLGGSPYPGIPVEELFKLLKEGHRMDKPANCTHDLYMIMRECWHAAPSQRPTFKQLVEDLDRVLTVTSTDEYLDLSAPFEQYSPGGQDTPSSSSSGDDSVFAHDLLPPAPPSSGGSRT
# assay comment: FGFR3 (enzymatic assay), TR-FRET
# Format: biochemical
# condition: average values if tested multiple times, read-out: FGFR 3 pIC50 (converted)
Where a name gives a salt, the structure may show the parent alone.

Query :: Fill in: IC50 of COc1cc(OC)c(F)c(/N=c2\ccc3ncc(-c4cnn(C)c4)nc3n2CC2CCC(=O)N2)c1F (stereo not drawn) [Compound 47] is ___
Result :: ~933 pM

Query :: Fill in: IC50 of CNCCn1/c(=N/c2c(F)cccc2F)ccc2ncc(-c3cnn(C)c3)nc21 is ___
Result :: ~794000 pM

Query :: Fill in: IC50 of COc1cc(OC)cc(N(Cc2ncc[nH]2)c2ccc3ncc(-c4cnn(C)c4)nc3n2)c1 [24-sulphate salt] is ___
Result :: ~912 pM

====

# system: Ba/F3-FGFR1-transfected cells (Homo sapiens)
# Construct: BAF3-FGFR1 (MIN IL3) pIC50; other: minus IL3
# Sequence (P11362 whole entry, change not shown): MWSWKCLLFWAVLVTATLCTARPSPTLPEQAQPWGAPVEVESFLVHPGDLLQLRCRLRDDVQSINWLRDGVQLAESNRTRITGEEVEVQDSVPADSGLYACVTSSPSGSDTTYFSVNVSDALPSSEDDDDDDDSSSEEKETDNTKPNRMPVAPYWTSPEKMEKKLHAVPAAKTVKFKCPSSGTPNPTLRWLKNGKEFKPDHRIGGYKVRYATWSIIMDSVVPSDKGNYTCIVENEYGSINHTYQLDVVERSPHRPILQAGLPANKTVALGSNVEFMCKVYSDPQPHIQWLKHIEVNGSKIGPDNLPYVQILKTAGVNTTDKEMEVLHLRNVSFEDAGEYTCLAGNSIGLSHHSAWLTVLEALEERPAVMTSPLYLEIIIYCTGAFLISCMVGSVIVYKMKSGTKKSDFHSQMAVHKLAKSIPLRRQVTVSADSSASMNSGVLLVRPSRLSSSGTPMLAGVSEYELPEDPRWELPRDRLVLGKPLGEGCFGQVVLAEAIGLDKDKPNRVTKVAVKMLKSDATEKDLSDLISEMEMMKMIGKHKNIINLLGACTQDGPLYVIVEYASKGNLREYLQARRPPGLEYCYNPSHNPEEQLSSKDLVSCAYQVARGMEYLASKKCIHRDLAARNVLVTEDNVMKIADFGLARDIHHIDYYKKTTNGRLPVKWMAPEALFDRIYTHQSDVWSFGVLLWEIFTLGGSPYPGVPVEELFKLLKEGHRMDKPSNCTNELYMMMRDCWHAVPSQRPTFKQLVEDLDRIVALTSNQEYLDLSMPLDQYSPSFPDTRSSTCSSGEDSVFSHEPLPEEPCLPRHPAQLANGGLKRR
# assay comment: Ba/F3-FGFR1 (minus IL3) cellular proliferation assay, Alamar Blue
# Format: cell-based
# Description: Ba/F3-FGFR1 (Minus IL3 or Plus IL3) (Cellular Proliferation Assay) In a 384 well plate, 100 nl of compound dilution in DMSO was sprayed before adding 50 μl cell culture medium (phenol red free RPMI-1640, 10% FBS, 2 mM L-Glutamine and 50 μg/ml Gentamycin) containing 20000 cells per well of Ba/F3-FGFR1-transfected cells. Cells were put in an incubator at 37° C. and 5% CO2. […]
Counter-ions that a name gives are not always drawn.
Flag rule - BAF3-FGFR1 (MIN IL3) pIC50 less than 8 flags criterion met; the remaining entries get criterion not met.

Query :: Here's an entry: COc1cc(/N=c2\ccc3ncc(-c4cnn(C)c4)nc3n2CC2CC(O)C(=O)N2)c(F)c(OC)c1 (stereo not drawn) . Is its BAF3-FGFR1 (MIN IL3) pIC50 below 8?
Result :: criterion met

Query :: Here's an entry: COc1cc(OC)c(F)c(N(CC2CCOC2)c2ccc3ncc(-c4cnn(C)c4)nc3n2)c1 (single isomer, unassigned) [Compound 170] . Is its BAF3-FGFR1 (MIN IL3) pIC50 below 8?
Result :: criterion met

Query :: Here's an entry: COc1cc(OC)cc(N(CC(O)COC(C)C)c2ccc3ncc(-c4cnn(CC(O)COC(C)C)c4)nc3n2)c1 (stereo not drawn) . Is its BAF3-FGFR1 (MIN IL3) pIC50 below 8?
Result :: criterion met

Query :: Here's an entry: COc1ccc(Cl)c(N(CC2CCC(=O)N2)c2ccc3ncc(-c4cnn(C)c4)nc3n2)c1Cl (stereo not drawn) [Compound 93] . Is its BAF3-FGFR1 (MIN IL3) pIC50 below 8?
Result :: criterion met

Query :: Here's an entry: COc1cc(OC)cc(N(Cc2ncc[nH]2)c2ccc3ncc(-c4cnn(C)c4)nc3n2)c1 [24-phosphate salt] . Is its BAF3-FGFR1 (MIN IL3) pIC50 below 8?
Result :: criterion not met

Query :: Here's an entry: COc1cc(OC)c(F)c(N(Cc2ncc[nH]2)c2ccc3ncc(-c4cnn(C)c4)nc3n2)c1 [23-fumarate salt] . Is its BAF3-FGFR1 (MIN IL3) pIC50 below 8?
Result :: criterion not met

Query :: Here's an entry: COc1cc(OC)c(F)c(N(CCNC(C)=O)c2ccc3ncc(-c4cnn(C)c4)nc3n2)c1 . Is its BAF3-FGFR1 (MIN IL3) pIC50 below 8?
Result :: criterion met

Query :: Here's an entry: COc1cc(OC)cc(N(CCNC2COC2)c2ccc3ncc(-c4cnn(C)c4)nc3n2)c1 . Is its BAF3-FGFR1 (MIN IL3) pIC50 below 8?
Result :: criterion met

Query :: Here's an entry: COc1cc(OC)cc(N(CC#Cc2ncccc2OC)c2ccc3ncc(-c4cnn(C)c4)nc3n2)c1 . Is its BAF3-FGFR1 (MIN IL3) pIC50 below 8?
Result :: criterion met

Query :: Here's an entry: COc1cc(OC)c(F)c(/N=c2\ccc3ncc(-c4cnn(C)c4)nc3n2CC2CCOC2)c1F (stereo not drawn) . Is its BAF3-FGFR1 (MIN IL3) pIC50 below 8?
Result :: criterion met

Query :: Here's an entry: COc1cc(O)cc(N(Cc2ncc[nH]2)c2ccc3ncc(-c4cnn(C)c4)nc3n2)c1F . Is its BAF3-FGFR1 (MIN IL3) pIC50 below 8?
Result :: criterion not met

Query :: Here's an entry: COc1cc(OC)c(F)c(N(Cc2nn[nH]n2)c2ccc3ncc(-c4cnn(C)c4)nc3n2)c1 . Is its BAF3-FGFR1 (MIN IL3) pIC50 below 8?
Result :: criterion met

Query :: Here's an entry: COc1cc(OC)c(F)c(N(Cc2ncc[nH]2)c2ccc3ncc(-c4ccccc4)nc3n2)c1 . Is its BAF3-FGFR1 (MIN IL3) pIC50 below 8?
Result :: criterion not met

Query :: Here's an entry: COc1cc(OC)c(F)c(N(Cc2ncc[nH]2)c2ccc3ncc(N4CCOCC4)nc3n2)c1F . Is its BAF3-FGFR1 (MIN IL3) pIC50 below 8?
Result :: criterion not met

Query :: Here's an entry: COc1cc(OC)c(F)c(N(Cc2c[nH]nn2)c2ccc3ncc(-c4cnn(C)c4)nc3n2)c1 . Is its BAF3-FGFR1 (MIN IL3) pIC50 below 8?
Result :: criterion met

Query :: Here's an entry: COc1cc(OC)c(F)c(N(CCCN2CCCC2=O)c2ccc3ncc(-c4cnn(C)c4)nc3n2)c1 . Is its BAF3-FGFR1 (MIN IL3) pIC50 below 8?
Result :: criterion met

Query :: Here's an entry: COc1cc(OC)c(F)c(N(C)c2ccc3ncc(-c4cnn(C)c4)nc3n2)c1F (single isomer, unassigned) . Is its BAF3-FGFR1 (MIN IL3) pIC50 below 8?
Result :: criterion met
